target: IKZF1 (dCK*-IKZF1 fusion in HEK293FT); experiment: inhibition of IKZF1 HTRF signal (DMSO = 0%, pomalidomide 10 uM = 100%); higher = lower IKZF1 protein level; details: compound concentration: 5 uM, overnight (~20 h)
inhibition of IKZF1 HTRF signal: recorded values
Report as a plain number; the unit % is understood.

{"columns": ["compound", "resultUnits", "result"],
 "data": [
  ["Cc1cc(C)nc(NS(=O)(=O)c2ccc(NC(=S)NC(=O)COc3ccc(Br)cc3Cl)cc2)n1", "%", -36.5],
  ["CC(C)(C)c1ccc(C(O)CCCN2CCC(C(O)(c3ccccc3)c3ccccc3)CC2)cc1 (configuration not stated)", "%", -24.6],
  ["CNC[C@H](O)c1ccc(O)c(O)c1", "%", -26.9],
  ["C=CC[C@@H]1/C=C(\\C)C[C@H](C)C[C@H](OC)[C@H]2O[C@@](O)(C(=O)C(=O)N3CCCC[C@H]3C(=O)O[C@H](/C(C)=C/[C@@H]3CC[C@@H](O)[C@H](OC)C3)[C@H](C)[C@@H](O)CC1=O)[C@H](C)C[C@@H]2OC [Tacrolimus]", "%", -32.9],
  ["Nc1ccc(-c2nc3ccc(-c4nc5ccc(N)cc5[nH]4)cc3[nH]2)cc1", "%", 1.33],
  ["CO[C@H]1O[C@@H]2O[C@@]3(C)CC[C@H]4[C@H](C)CC[C@@H]([C@H]1C)[C@@]24OO3 [Artemether]", "%", -26.4]
]}

# input Report inhibition of IKZF1 HTRF signal for COC(=O)C1=C(C)NC(C)=C(C(=O)OC)C1c1ccccc1[N+](=O)[O-] please.
# output -23.7
